Conditions: 343.15 K; 100 kPa; Liquid; Vibrating tube method
measured-property: mass density (kg/m3)

{"compound": "CCCC(=O)[O-].CN(C)C(=[NH2+])N(C)C [1,1,3,3-tetramethylguanidinium butanoate]", "mass density [kg/m3]": 997.07}
{"compound": "CCCCCC(=O)[O-].CN(C)C(=[NH2+])N(C)C [1,1,3,3-tetramethylguanidinium hexanoate]", "mass density [kg/m3]": 962.63}
{"compound": "CCCCC(=O)[O-].CN(C)C(=[NH2+])N(C)C [1,1,3,3-tetramethylguanidinium pentanoate]", "mass density [kg/m3]": 976.07}
{"compound": "CCCCCCC(=O)[O-].CN(C)C(=[NH2+])N(C)C [1,1,3,3-tetramethylguanidinium heptanoate]", "mass density [kg/m3]": 950.35}
{"compound": "CCCCCCCC(=O)[O-].CN(C)C(=[NH2+])N(C)C [1,1,3,3-tetramethylguanidinium octanoate]", "mass density [kg/m3]": 935.46}
